absorbance at 450 nm values, listed per item
Biological target: T1, fragment DIR-II (last 27 amino acids of the sequence encoded by the retained intron of DIR) (human)
T1 construct: also called target fragment DIR-II
T1 peptide: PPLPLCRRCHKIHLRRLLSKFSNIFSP
Experiment: ELISA, DIR-II coated; mAb (1 mg/mL) diluted 1:1458k

- DIR antibody IR-II-1 (antibody, V domains shown, Monoclonal antibody) VH: QVQLKESGAELMKPGASVKISCKATGYTFSSYWIEWVKQRPGHGLEWIGEILPGSGTTNYNDKFKGKATFTADTSSNTAYMQLSNLTSEDSAVYYCARSYDGYYVFDYWGQGTTLTVSS VL: DIELTQSPASLAVSLGQRATISCKASQSVDYDGDSYMNWYQQKPGQPPKLLIYAASNLESGIPARFSGSGSGTDFTLNIHPVEEEDAATYYCQQSNEDPRTFGGGTKLEIK: 0.0653 absorbance (450 nm)

binder DIR antibody IR-II-6 (antibody, V domains shown, Monoclonal antibody; also called detection antibody) VH: QVQLQQSGAELMKPGASVKISCKATGYTFSRYWIEWIKQRPGHGLEWIGEILPGSYYSTNSNEKFKGKATFTADTSSNTAYMQLSSLTSEDSAVYYCARSGVITTRGDYFAMDYWGHGTSVTVSS VL: DIVLTQSPASLAVSLGQRATISCKASQSVDYDGDSYMNWYQQKPGQPPKLLMYAASNLESGIPARFSGSGSGTDFTLNIHPVEEEDAATYYCQQSNEDPRTFGGGTKLEIK , absorbance at 450 nm observed: 0.2 absorbance (450 nm)

binder DIR antibody IR-II-10 (A2D10) (antibody, V domains shown, Monoclonal antibody) VH: EVQLQQSGPELVKPGASVKISCKTSGYTFTEYTMHWVKQSHGKSLEWIGGIYPHNGGTNYNQKFKGKATLTVDKSSSTAYMELRSLTSEDSAVYYCTEDLTFDYWGQGTTLTVSS VL: DIQMTQTTSSLSASLGDRVTISCSASQDISNYLNWYQQKPDGTVKLLIYYTSSLHSGVPSRFSGSGSGTDYSLTISNLEPEDIATYHCLQYSKLPFTFGSGTKLEIK , absorbance at 450 nm observed: 0.0501 absorbance (450 nm)

binder DIR antibody IR-II-8 (antibody, V domains shown, Monoclonal antibody) VH: QVQLQQSGAELMKPGASVKISCKATGYTFSNYWIEWVKQRPGHGLEWIGEILPGSGSTNYNEKFKGKATFTADTSSNTAYMQLSSLTSEDSAVYYCARSGMITTRGDYFAMDYWGQGTSVTVSS VL: DIELTQSPASLAVSLGQRATISCKASQSVDYDGESYMNWYQQKPGQPPKLLIYAASNLESGIPARFSGSGSGTDFTLNIHPVEEEDAATYYCQQSNDDPRTFGGGTKLEIK , absorbance at 450 nm observed: 0.0906 absorbance (450 nm)
